target: Hfq(2-69:R16A/R17A) (Escherichia coli, UniProt P0A6X3 2-69, R16A;R17A); assay: fluorescence polarization
readout.kind: Kd (nM)
Write the answer as a number in nM, unit excluded.

Input: Note Kd for the binder shown: xtal DNA, 30 bp with three 6-bp A-tracts (dsDNA) DNA 1: CGGCAAAAAACGGCAAAAAACGGCAAAAAA DNA 2: TTTTTTGCCGTTTTTTGCCGTTTTTTGCCG
Output: 66.8
